From: patent US20210130452A1

Experimental Target: T1, human IL-17A/F heterodimer (human, UniProt Q16552 24-155; Q96PD4 31-163, limits assumed, biotinylated with Sulfo-NHS-LC-Biotin in the AlphaScreen assays only)
T1 construct: also called hIL-17A/F
T1 sequence (Q16552 24-155 limits assumed, chain 1 of 2): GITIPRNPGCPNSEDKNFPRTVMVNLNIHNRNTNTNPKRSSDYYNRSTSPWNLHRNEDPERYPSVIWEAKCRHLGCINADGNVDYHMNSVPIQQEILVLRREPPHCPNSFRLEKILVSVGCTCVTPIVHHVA
T1 sequence (Q96PD4 31-163 limits assumed, chain 2 of 2): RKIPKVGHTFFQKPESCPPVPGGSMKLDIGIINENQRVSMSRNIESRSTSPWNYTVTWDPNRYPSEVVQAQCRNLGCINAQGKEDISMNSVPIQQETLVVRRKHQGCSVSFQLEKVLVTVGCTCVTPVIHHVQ
Protocol Description: AlphaScreen competition, hIL-17A/F - IL-17RA-Fc
pIC50: −log10 of the molar value.
Is pIC50 at least 9? Then rule met. If not, rule not met.

Some entries whose results are on file:
{"columns": ["Binder", "Group Label"],
 "data": [
  ["02A10 (VHH, Class 2 Nanobody (anti-IL-17A and IL-17A/F); not shown: c-myc, His6 tag) VHH: EVQLVESGGGLVQPGGSLRLSCAASGFALGYYAIGWFRQAPGKEREGVSCDSSSDGRTYYGDSVKGRFTISTDSAKNTVYLQMNSLKPEDTAVYYCATCTDFEYDYWGQGTQVTVSS", "rule met"],
  ["13E02 (VHH, Class 4 Nanobody (cross-reactive: anti-IL-17A, IL-17F and IL-17A/F); also called IL17MS13E02; not shown: c-myc, His6 tag) VHH: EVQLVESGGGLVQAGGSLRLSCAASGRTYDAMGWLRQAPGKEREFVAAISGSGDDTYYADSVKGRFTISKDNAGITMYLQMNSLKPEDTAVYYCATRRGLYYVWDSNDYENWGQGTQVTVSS", "rule met"]
]}

stdin: Given the entry 09D10 (VHH, Class 2 Nanobody (anti-IL-17A and IL-17A/F); not shown: c-myc, His6 tag) VHH: EVQLVESGGGLVQAGGSLSLSCAASGSVFRIDVMRWHRQAPGKQREFLASIASGGTTNYADSVKGRFTISRDNAKNTVYLQMNSLKPEDTAVYYCGANAESGPYTYWGLGTQVTVSS , answer whether its pIC50 meets or surpasses 9.
stdout: rule not met

stdin: Given the entry 11A06 (VHH, Class 2 Nanobody (anti-IL-17A and IL-17A/F); not shown: c-myc, His6 tag) VHH: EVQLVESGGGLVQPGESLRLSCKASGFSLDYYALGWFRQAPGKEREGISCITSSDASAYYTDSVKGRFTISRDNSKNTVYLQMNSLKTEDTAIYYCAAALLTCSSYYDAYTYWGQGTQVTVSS , answer whether its pIC50 meets or surpasses 9.
stdout: rule met

stdin: Given the entry 16A04 (VHH, Class 3 Nanobody (anti-IL-17F); also called IL17MS16A04; not shown: c-myc, His6 tag) VHH: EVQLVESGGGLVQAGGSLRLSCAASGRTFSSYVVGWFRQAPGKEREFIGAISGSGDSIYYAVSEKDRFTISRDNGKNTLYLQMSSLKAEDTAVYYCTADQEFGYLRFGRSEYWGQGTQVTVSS , answer whether its pIC50 meets or surpasses 9.
stdout: rule not met

stdin: Given the entry 18B05 (VHH, Class 4 Nanobody (cross-reactive: anti-IL-17A, IL-17F and IL-17A/F); not shown: c-myc, His6 tag) VHH: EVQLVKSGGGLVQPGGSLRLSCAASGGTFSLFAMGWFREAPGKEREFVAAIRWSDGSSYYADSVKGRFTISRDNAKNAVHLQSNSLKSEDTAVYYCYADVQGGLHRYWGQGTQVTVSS , answer whether its pIC50 meets or surpasses 9.
stdout: rule met
